tested on: MED411-FHTC; assay: PrestoBlue cell viability, 72-hour treatment, limiting dilution; format: cell-based; conditions: Homo sapiens, read-out: BAY2402234 IC50, G3MB-MYC
outcome.measure: IC50 (nM)
Number only, in nM; omit the unit.

Entry CCn1c(CO)nn(-c2cc(O[C@@H](C)C(F)(F)F)c(C(=O)Nc3c(F)cccc3Cl)cc2F)c1=O — recorded IC50 = 0.626
